molecular target: T1, VEGFR-2-Fc (UniProt P35968 20-322); assay: receptor-Fc IP
T1 construct: domain: first 3 Ig domains; conditioned supernatant of 293T cells; also called VEGFR-2-Fc fusion protein; not shown: Fc fragment of the pIg vector
T1 sequence (P35968 20-322): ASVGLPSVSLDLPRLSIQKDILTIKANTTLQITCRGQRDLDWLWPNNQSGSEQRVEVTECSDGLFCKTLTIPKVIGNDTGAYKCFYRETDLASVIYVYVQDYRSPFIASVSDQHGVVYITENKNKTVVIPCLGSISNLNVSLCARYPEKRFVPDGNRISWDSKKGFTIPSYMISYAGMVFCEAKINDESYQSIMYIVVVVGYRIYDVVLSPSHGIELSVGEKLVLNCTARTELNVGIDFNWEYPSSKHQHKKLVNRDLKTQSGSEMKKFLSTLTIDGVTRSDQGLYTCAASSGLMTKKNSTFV

Binder: 11-9 (ligand) GQNHHEVVKFMDVYQRSYCHPIETLVDIFQEYPDEIEYIFKPSCVPLMRCGGCCNDEGLECVPTEESNITMQIMRITVPLSQGPKPVTISFLQHNKCECRPKKD
binding result: no binding
--
Binder: 71-3 (ligand) GQNHHEVVKSIDNEWRKTQCMPREVCIDVGKEYPDEIEYIFKPSCVPLMRCGGCCNSEGLQCVPTEESNITMQIMRIKPHQGQHIGEMSFLQHNKCECRPKKD
binding result: no binding
--
Binder: 84-5 (ligand) AHYNTEILKFMDVYQRSYCHPIETLVDIFQEFGVATNTFFKPSCVPLMRCGGCCNDEGLECVPTEESNITMQIMRIKPHQGQHIGEMSFANHTSCRCMSKLD
binding result: no binding
--
Binder: 84-3 (ligand) AHYNTEILKFMDVYQRSYCHPIETLVDIFQEFGVATNTFFKPSCVPLMRCGGCCNSEGLQCVPTEESNITMQIMRIKPHQGQHIGEMSFLQHNKCECRPKKD
binding result: binds
